test: Toxicity in mouse RAW264.7 cells assessed as reduction in cell vaibility at 10 uM; type: cell-based; details: raw264.7, 10 µM
QUANTITY: Activity

Before answering, review these 5 worked examples.
> print(dat)
                              smiles.string  quantity  observed.result
1         Cc1cc(C(=O)CCc2ccccc2)c(O)c(C)c1O  Activity        Non-Toxic
2  COc1ccc(/C=C/C(=O)c2cc(C)c(O)c(C)c2O)cc1  Activity        Non-Toxic
3   Cc1cc(C(=O)/C=C/c2ccc(F)cc2)c(O)c(C)c1O  Activity        Non-Toxic
4     COc1cc(O)c(C(=O)/C=C/c2ccc(F)cc2)cc1C  Activity        Non-Toxic
5  Cc1cc(C(=O)/C=C/c2ccc(F)cc2)c(O)c(C)c1OC(=O)/C=C/c1ccc(F)cc1  Activity        Non-Toxic

Kindly review the next compound as well.
// query Activity value for entry Cc1ccc(/C=C/C(=O)c2cc(C)c(O)c(C)c2O)cc1
Non-Toxic
